# IC50 values compiled below
Biological target: PDE4D: catalytic domain S316-V692 (Homo sapiens, UniProt Q08499)
Construct: pET15S PDE4D S316-V692-X; His6 (N, cleaved yes); thrombin cleavage site (N, cleaved yes)
Sequence (Q08499 380-756): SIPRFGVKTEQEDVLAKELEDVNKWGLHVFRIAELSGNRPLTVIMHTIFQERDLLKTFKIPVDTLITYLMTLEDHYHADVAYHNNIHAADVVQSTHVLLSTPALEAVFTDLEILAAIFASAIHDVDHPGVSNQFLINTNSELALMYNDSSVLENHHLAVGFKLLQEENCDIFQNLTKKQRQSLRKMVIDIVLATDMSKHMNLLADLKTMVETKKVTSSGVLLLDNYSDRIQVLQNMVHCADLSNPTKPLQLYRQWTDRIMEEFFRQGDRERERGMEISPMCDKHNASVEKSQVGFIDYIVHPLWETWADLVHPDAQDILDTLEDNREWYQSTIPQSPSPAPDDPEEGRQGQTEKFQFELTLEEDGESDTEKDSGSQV
Experiment: PDE4 IC50 determination by Scintillation Proximity Assay (SPA), PDE4D catalytic domain
Details: [3H]cAMP SPA, 30 min at 30° C.
Observable: IC50

compound=CCOc1cc(NS(C)(=O)=O)ccc1C(=O)n1cc(-c2ccc(OC)c(OC)c2)c2cccnc21 reading="≤ 10 µM"
compound=COc1ccc(-c2cn(S(=O)(=O)c3ccccc3)c3ncccc23)cc1OC1CCCC1 reading="≤ 10 µM"
compound=COc1cccc(NC(=S)n2cc(-c3ccc(OC)c(OC)c3)c3cccnc32)c1 reading="≤ 10 µM"
compound=COc1ccc(-c2cn(S(=O)(=O)Cc3cccc([N+](=O)[O-])c3)c3ncccc23)cc1OC reading="≤ 10 µM"
compound=COc1ccc(-c2c[nH]c3ncccc23)cc1OC1CCCC1 reading="≤ 10 µM"
compound=CCOc1ccccc1C(=O)n1cc(-c2ccc(OC)c(OC)c2)c2cccnc21 reading="≤ 10 µM"
compound=COc1ccc(-c2cn(Cc3cccc([N+](=O)[O-])c3)c3ncccc23)cc1OC reading="≤ 10 µM"
compound=COc1ccc(-c2cn(S(=O)(=O)c3cccc4cc(C)cnc34)c3ccc(Cl)cc23)cc1OC1CCCC1 reading="≤ 10 µM"
